- TARGET UNDER TEST: Mitogen-activated protein kinase 14 (Homo sapiens, UniProt Q16539)
- Sequence (Q16539 whole entry): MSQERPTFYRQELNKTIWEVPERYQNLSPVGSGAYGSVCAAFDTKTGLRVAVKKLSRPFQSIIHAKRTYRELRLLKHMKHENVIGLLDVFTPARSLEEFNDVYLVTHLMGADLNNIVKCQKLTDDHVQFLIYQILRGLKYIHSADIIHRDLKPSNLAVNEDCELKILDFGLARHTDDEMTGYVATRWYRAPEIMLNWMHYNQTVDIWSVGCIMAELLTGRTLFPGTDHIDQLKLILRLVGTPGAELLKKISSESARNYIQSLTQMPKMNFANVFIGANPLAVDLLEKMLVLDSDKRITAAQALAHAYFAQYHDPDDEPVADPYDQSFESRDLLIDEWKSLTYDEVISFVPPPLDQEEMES
- EXPERIMENT: Inhibition of p38alpha in human PBMC assessed as inhibition of LPS-induced IL1beta production after 16 to 18 hrs by ELISA
pIC50: −log10 of the molar value.
QUANTITY NAME: pIC50

CCc1ccccc1Sc1ccc2c(-c3c(Cl)cccc3Cl)c(=O)ncn2n1    6.01
Cc1ccc(Sc2ccc3c(-c4c(Cl)cccc4Cl)c(=O)ncn3n2)c(C)c1    6.16
O=c1ncn2nc(Sc3ccccc3)ccc2c1-c1ccccc1C(F)(F)F    5.68
Nc1cc(F)ccc1Sc1ccc2c(-c3c(Cl)cccc3Cl)c(=O)ncn2n1    6.55

P. O=c1ncn2nc(Sc3ccc(F)c(Cl)c3)ccc2c1-c1c(Cl)cccc1Cl
Q. Cc1ccc(Sc2ccc3c(-c4c(Cl)cccc4Cl)c(=O)ncn3n2)cc1C
Prompt: Problem: Given the entries P and Q , determine which has the lower reported pIC50. Could you answer with the label of the item you picked?
Completion: Q
